assay-procedure: Biodistribution after day 9 in mouse spleen
Format: ADME, organism-based
measurement-label: concentration at 9 day (ng/g)

{"columns": ["compound", "unit-text", "concentration at 9 day"],
 "data": [
  ["CCc1c(CC)c2cc3nc(cc4[nH]c(c(C)c4CC)c4[nH]c(cc5nc(cc1[nH]2)C(CCC(=O)NC1C(O)OC(CO)C(O)C1O)=C5C)c(CC)c4C)C(C)=C3CCC(=O)NC1C(O)OC(CO)C(O)C1O (configuration not stated)", "ng/g", 9700],
  ["C=CC1=C(C)c2cc3nc(cc4[nH]c(cc5[nH]c(cc1n2)c(C)c5CCC(=O)NC1C(O)OC(CO)C(O)C1O)c(CCC(=O)NC1C(O)OC(CO)C(O)C1O)c4C)C(C=C)=C3C (configuration not stated)", "ng/g", 9000]
]}

Values from ChEMBL document CHEMBL1135601
